subject-of-test: KRAS G12C (Homo sapiens, UniProt P01116+P62937, G12C)
Sequence (P01116 1-169 isoform P01116-2 G12C limits assumed): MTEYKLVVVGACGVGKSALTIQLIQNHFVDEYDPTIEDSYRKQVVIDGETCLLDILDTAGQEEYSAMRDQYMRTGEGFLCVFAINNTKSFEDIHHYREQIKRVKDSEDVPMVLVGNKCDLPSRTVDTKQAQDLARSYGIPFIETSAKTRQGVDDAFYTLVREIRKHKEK
Sequence (P62937 whole entry): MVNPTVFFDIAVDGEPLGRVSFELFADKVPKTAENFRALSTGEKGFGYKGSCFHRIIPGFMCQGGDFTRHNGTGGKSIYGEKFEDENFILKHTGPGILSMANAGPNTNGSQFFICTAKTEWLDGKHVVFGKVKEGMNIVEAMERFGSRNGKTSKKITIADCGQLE
test-summary: Ras-Raf disruption / FRET / MOA assay (BRAF RBD)
Format: biochemical
condition-notes: KRAS G12C FRET data IC50, Ras-Raf disruption, with Cyclophilin A
# key: entry, value: IC50

[
  {
    "compound": "CCn1c(-c2cccnc2[C@H](C)OC)c2c3cc(ccc31)-c1cc(O)cc(c1)C[C@H](NC(=O)[C@H](C(C)C)N1CC[C@@H](NC(=O)[C@H]3CN3)C1=O)C(=O)N1CCC[C@H](N1)C(=O)OCC(C)(C)C2",
    "recorded-result": "10 to 100 nM"
  }
]

// IC50 lookup, key: CCn1c(-c2cccnc2[C@H](C)OC)c2c3cc(ccc31)-c1cc(O)cc(c1)C[C@H](NC(=O)[C@H](C(C)C)N(C)C(=O)CN(C)C(=O)[C@H]1N[C@H]1C1CCC1)C(=O)N1CCC[C@H](N1)C(=O)OCC(C)(C)C2
10 to 100 nM

// IC50 lookup, key: CCn1c(-c2cccnc2[C@H](C)OC)c2c3cc(ccc31)-c1cc(O)cc(c1)C[C@H](NC(=O)[C@H](C(C)C)N(C)C(=O)CN(C)C(=O)[C@@H]1N[C@H]1C(F)(F)F)C(=O)N1CCC[C@H](N1)C(=O)OCC(C)(C)C2
10 to 100 nM

// IC50 lookup, key: CCn1c(-c2cccnc2[C@H](C)OC)c2c3cc(ccc31)-c1cc(O)cc(c1)C[C@H](NC(=O)[C@H](C(C)C)N(C)C(=O)CN(C)C(=O)[C@@]1(C)CN1)C(=O)N1CCC[C@H](N1)C(=O)OCC(C)(C)C2
10 to 100 nM

// IC50 lookup, key: CCn1c(-c2cccnc2[C@H](C)OC)c2c3cc(ccc31)-c1cc(O)cc(c1)C[C@H](NC(=O)[C@H](C(C)C)N1CC[C@H](NC(=O)[C@H]3CN3)C1=O)C(=O)N1CCC[C@H](N1)C(=O)OCC(C)(C)C2
10 to 100 nM

// IC50 lookup, key: CCn1c(-c2cccnc2[C@H](C)OC)c2c3cc(ccc31)-c1cc(O)cc(c1)C[C@H](NC(=O)[C@H](C(C)C)N(C)C(=O)CNC(=O)[C@@H]1CN1)C(=O)N1CCC[C@H](N1)C(=O)OCC(C)(C)C2
10 to 100 nM

// IC50 lookup, key: CCn1c(-c2cccnc2[C@H](C)OC)c2c3cc(ccc31)-c1cc(O)cc(c1)C[C@H](NC(=O)[C@H](C(C)C)N(C)C(=O)CN(C)C(=O)[C@H]1N[C@H]1C(F)(F)F)C(=O)N1CCC[C@H](N1)C(=O)OCC(C)(C)C2
10 to 100 nM

// IC50 lookup, key: CCn1c(-c2cccnc2[C@H](C)OC)c2c3cc(ccc31)-c1cc(O)cc(c1)C[C@H](NC(=O)[C@H](C(C)C)N(C)C(=O)[C@H]1CCN1C(=O)[C@H]1CN1)C(=O)N1CCC[C@H](N1)C(=O)OCC(C)(C)C2
10 to 100 nM

// IC50 lookup, key: CCn1c(-c2cccnc2[C@H](C)OC)c2c3cc(ccc31)-c1cc(O)cc(c1)C[C@H](NC(=O)[C@H](C(C)C)N(C)C(=O)CN(C)C(=O)[C@H]1N[C@@H]1C(F)(F)F)C(=O)N1CCC[C@H](N1)C(=O)OCC(C)(C)C2
10 to 100 nM

// IC50 lookup, key: CCn1c(-c2cccnc2[C@H](C)OC)c2c3cc(ccc31)-c1cc(O)cc(c1)C[C@H](NC(=O)[C@H](C(C)C)N(C)C(=O)CN(C)C(=O)[C@@H]1CN1C1COC1)C(=O)N1CCC[C@H](N1)C(=O)OCC(C)(C)C2 (stereo partly shown)
10 to 100 nM

// IC50 lookup, key: CCn1c(-c2cccnc2[C@H](C)OC)c2c3cc(ccc31)-c1cc(O)cc(c1)C[C@H](NC(=O)[C@H](C(C)C)N(C)C(=O)CN(C)C(=O)[C@@H]1CN1CCCOC(C)=O)C(=O)N1CCC[C@H](N1)C(=O)OCC(C)(C)C2 (stereo partly shown)
< 10 nM

// IC50 lookup, key: CCn1c(-c2cccnc2[C@H](C)OC)c2c3cc(ccc31)-c1cc(O)cc(c1)C[C@H](NC(=O)[C@H](C(C)C)N(C)C(=O)CN(C)C(=O)[C@H]1CN1Cc1ccccc1CO)C(=O)N1CCC[C@H](N1)C(=O)OCC(C)(C)C2 (stereo partly shown)
< 10 nM

// IC50 lookup, key: CCn1c(-c2cccnc2[C@H](C)OC)c2c3cc(ccc31)-c1cc(O)cc(c1)C[C@H](NC(=O)[C@H](C(C)C)N(C)C(=O)CN(C)C(=O)[C@H]1N[C@H]1C1COC1)C(=O)N1CCC[C@H](N1)C(=O)OCC(C)(C)C2
10 to 100 nM

// IC50 lookup, key: CCn1c(-c2cccnc2[C@H](C)OC)c2c3cc(ccc31)-c1cc(O)cc(c1)C[C@H](NC(=O)[C@H](C1CCCC1)N(C)C(=O)CN(C)C(=O)[C@H]1N[C@H]1C1(F)CC1)C(=O)N1CCC[C@H](N1)C(=O)OCC(C)(C)C2
10 to 100 nM

// IC50 lookup, key: CCn1c(-c2cccnc2[C@H](C)OC)c2c3cc(ccc31)-c1cc(O)cc(c1)C[C@H](NC(=O)[C@H](C(C)C)N(C)C(=O)C13CCC(CC1)N3C(=O)[C@H]1CN1)C(=O)N1CCC[C@H](N1)C(=O)OCC(C)(C)C2
10 to 100 nM

// IC50 lookup, key: CCn1c(-c2cccnc2[C@H](C)OC)c2c3cc(ccc31)-c1cc(O)cc(c1)C[C@H](NC(=O)[C@H](C(C)C)N(C)C(=O)CN(C)C(=O)[C@@H]1N[C@@H]1C1CCC1)C(=O)N1CCC[C@H](N1)C(=O)OCC(C)(C)C2
10 to 100 nM

# credit: patent US20230233569A1
